Assign log10 solubility kinetic to each entry below.
# testContext: buffer; pH 7.4; 200.0 µM
Hello, just confirming the data are log10 of solubility kinetic with units of µg/mL.

[[record]]
molecule = "Cc1ccc(-c2nc(NCC3CCCO3)sc2C)cc1 (configuration not stated)"
recordedmeasurement = 1.38


For the 7 molecules below, give their log10 solubility kinetic values.
1. COc1cc(S(=O)(=O)N(C)C2CCCCC2)c(C)cc1C
2. Cc1ccc(OCCCCN2CCCCC2)c(C)c1
3. COc1ccccc1NC(=O)c1ccc(S(=O)(=O)N(C)c2ccccc2OC)cc1
4. Cc1nc2ccccc2n1Cc1ccc(Br)cc1
5. O=C(CS(=O)c1ccc(Br)cc1)N1CCOCC1 (configuration not stated)
6. C=CCn1cc(/C=C2\SC(N3CCOCC3)=NC2=O)c2ccccc21
7. O=C1CC2(CC(c3ccc(Cl)cc3)=NO2)C(=O)N1c1ccccc1 (configuration not stated)

## Output
1: 0.18; 2: 1.29; 3: 0.85; 4: 1.58; 5: 1.69; 6: 0.98; 7: 1.69

---

# testContext: buffer; pH 7.4; 200.0 µM
measureName: solubility kinetic (µg/mL)
Numbers only, in µg/mL.

Solved cases below.
[[record]]
compound = "O=C1OC(c2ccc(F)cc2)=N/C1=C\\c1ccc(Br)o1"
recordedmeasurement = 9.6

[[record]]
compound = "Oc1cccc(/C=C/c2ccc3cccc(O)c3n2)c1"
recordedmeasurement = 2.3

[[record]]
compound = "COc1ccccc1NC(=O)c1ccc(NC(=O)C2CC2C)cc1 (stereo not given)"
recordedmeasurement = 10.3

[[record]]
compound = "CNc1c(NC(=O)C2CCC(C)CC2)c(=O)oc2ccccc12 (stereo not given)"
recordedmeasurement = 1.8

[[record]]
compound = "O=C(/C=C/NCc1cccnc1)c1ccc(-c2ccccc2)cc1"
recordedmeasurement = 2.8


Record solubility kinetic for all entries; do not skip any.
1. N#Cc1c2ccc(OCC(N)=O)cc2n2ccccc12
2. Cc1ccc(N/C=C/C(=O)c2ccco2)c(O)c1
3. CC(=O)c1c(-c2ccccc2)c2cc([N+](=O)[O-])ccc2[nH]c1=O
4. N#CCc1nc2ccc(S(=O)(=O)N3CCOCC3)cc2s1
5. COc1ccc2ccc(OCC(=O)Nc3cc(C)on3)cc2c1
6. Fc1ccccc1CN1CCN(c2ncccn2)CC1

## Output
1: 1.95; 2: 1.4; 3: 16.3; 4: 37.2; 5: 12.4; 6: 30.1

Please give solubility kinetic for each item listed below.
1. Cc1ccc(NCc2ccc([N+](=O)[O-])s2)cc1
2. CCC(=O)Nc1c(-c2ccccc2)c(=O)c2ccccc2n1C
3. Cc1cccc(C)c1OCCCN1CCOCC1.Cl
4. N#Cc1cccc(NC(=O)CNC(=O)Cc2ccccc2)c1
5. Cc1ccc(NC(=O)c2ccc(Cl)cc2Cl)cc1O
6. COC(=O)C1=C(O)/C(=C/c2cccc(OC)c2O)N=C1C
7. COc1ccc(OC)c(/C=C2\NC(=O)NC2=O)c1

## Output
1: 13.7; 2: 44.9; 3: 35.5; 4: 42.1; 5: 12; 6: 35.1; 7: 9.5

---

# testContext: buffer; pH 7.4; 200.0 µM
measureName: solubility kinetic (µg/mL)
Numbers only, in µg/mL.

These recorded examples may help you get a feel for the data.
[[record]]
compound = "CN(Cc1c(F)cccc1Cl)C(=O)c1ccc(NC(=O)CC2SC(N3CCCCC3)=NC2=O)cc1 (centres undefined)"
unitabbreviation = "µg/mL"
recordedmeasurement = 53.2

[[record]]
compound = "COc1cccc(C(=O)Nc2ccccc2N2CCN(C(=O)c3ccccc3)CC2)c1"
unitabbreviation = "µg/mL"
recordedmeasurement = 15

[[record]]
compound = "COc1cc(-c2cc(C(=O)Nc3ccc(C)c(S(=O)(=O)N4CCOCC4)c3)c3ccccc3n2)cc(OC)c1OC"
unitabbreviation = "µg/mL"
recordedmeasurement = 6.7

[[record]]
compound = "CC(=O)c1cn(CCOc2ccc(F)cc2)c2ccccc12"
unitabbreviation = "µg/mL"
recordedmeasurement = 10.8

[[record]]
compound = "CC(=O)NC(c1ccc(Cl)cc1Cl)c1ccc2cccnc2c1O (centres undefined)"
unitabbreviation = "µg/mL"
recordedmeasurement = 3


Hi, could you look up solubility kinetic for each item in my list?
1. CC(C)n1c(CN(C)Cc2ccccc2)nc2c1c(=O)n(C)c(=O)n2C
2. Cc1c(C(=O)O)sc2nc(/C=C/c3cccc(F)c3)[nH]c(=O)c12

## Output
1. 23.8
2. 41.3

---

# testContext: buffer; pH 7.4; 200.0 µM
Rule: fulfilled for solubility kinetic not less than 30 µg/mL, not fulfilled for anything less.

Here are 8 compounds together with their reported answers.
[[record]]
compound = "CC1=CCC(C(=O)O)C(C(=O)Nc2cccnc2)C1 (configuration not stated)"
labelclass = "fulfilled"

[[record]]
compound = "CC1CCCCN1C(=S)NCc1ccco1 (configuration not stated)"
labelclass = "fulfilled"

[[record]]
compound = "CN1CCN(c2ccccc2/C=C2/C(=O)Nc3ccccc32)CC1"
labelclass = "fulfilled"

[[record]]
compound = "C#CCNC(=O)c1ccc(OCc2ccccc2)cc1Cl"
labelclass = "fulfilled"

[[record]]
compound = "Nc1nccc(-c2cc(-c3ccc(Cl)cc3Cl)no2)n1"
labelclass = "not fulfilled"

[[record]]
compound = "COc1cccc(COc2ncnc3sccc23)c1"
labelclass = "fulfilled"

[[record]]
compound = "Cc1nc(-c2ccccc2)nc2sc(C(=O)c3ccc(F)cc3)c(N)c12"
labelclass = "not fulfilled"

[[record]]
compound = "CN(C)CCN(Cc1cccs1)c1ccccn1.Cl"
labelclass = "fulfilled"


## Input Item "FC(F)(F)c1cccc(CN2CCSCC2)c1" with solubility kinetic of 30 µg/mL or above?
## Output not fulfilled

## Input Hi, just wondering whether "CC(C)c1cc(NCc2ccccn2)n2c(nc3ccccc32)c1C#N" shows solubility kinetic of 30 µg/mL or higher.
## Output not fulfilled

## Input Threshold query (solubility kinetic >= 30 µg/mL) on "O=C(c1cc(Cl)nc2ccccc12)N1CCc2ccccc2C1"
## Output fulfilled

## Input Could you please find out whether "CC(C)Sc1sc(C(=O)O)c(-c2ccc(Cl)cc2)c1C#N" has solubility kinetic that meets 30 µg/mL or exceeds it?
## Output fulfilled

---

# testContext: buffer; pH 7.4; 200.0 µM
measureName: log10 solubility kinetic (log10 of the value in µg/mL)
Record value = log10 of solubility kinetic given in µg/mL.

Look over these answered cases.
[[record]]
compound = "Cc1ccc(O)c(NC(=O)c2noc(C(C)C)c2[N+](=O)[O-])c1"
measurename = "log10 solubility kinetic"
recordedmeasurement = 1.61

[[record]]
compound = "Cc1ccccc1CNCCCSc1ncccn1.Cl"
measurename = "log10 solubility kinetic"
recordedmeasurement = 1.55

[[record]]
compound = "COc1ccccc1Oc1ccnc2cc(Cl)ccc12"
measurename = "log10 solubility kinetic"
recordedmeasurement = 0.96

[[record]]
compound = "Cc1ccc(NC(=O)CSc2ccc3c(c2)OCCO3)c(O)c1"
measurename = "log10 solubility kinetic"
recordedmeasurement = 1.57

[[record]]
compound = "Cc1ccc2[nH]c3c(c2c1)CN(C(=O)CN1CCCCC1)CC3"
measurename = "log10 solubility kinetic"
recordedmeasurement = 1.62


Hi team, please reply with log10 solubility kinetic for each item in this list.
1. COc1cccc(NC(=O)COC(=O)CC2CC3CCC2C3)c1 (stereo not given)
2. O=C(Nc1ccccc1)Nc1csc2ccccc12
3. COCCNC(=S)N(CCc1c(C)[nH]c2ccccc12)Cc1ccco1
4. COc1cccc(C(=O)NCC2(c3ccccc3)CCCC2)c1
5. O=C(Nc1cc(Cl)cc(Cl)c1)N1CCCC1

## Output
1.38
-0.22
1.45
1.45
1.54

---

# testContext: buffer; pH 7.4; 200.0 µM
measureName: solubility kinetic (µg/mL)
Numbers only, in µg/mL.

Items follow; give solubility kinetic for each.
1. COc1ccc(NC(=O)Nc2c(C)noc2-c2ccccc2)cc1
2. O=C(Nc1ccc(Cl)c(S(=O)(=O)N2CCOCC2)c1)c1ccc2c(c1)OCO2
3. COC(=O)CCC(=O)c1ccn(S(=O)(=O)c2ccccc2)c1
4. CC(C)(C)c1csc(NC(=O)CCc2ccccc2)n1
5. O=C(Nc1ccccc1)/C(=C/c1ccccc1)NC(=O)c1ccco1

## Output
7.5
2.6
44.6
2.1
1.2

---

# testContext: buffer; pH 7.4; 200.0 µM
measureName: solubility kinetic (µg/mL)
Numbers only, in µg/mL.

Examples from the recorded data:
[[record]]
compound = "Cc1ccc(S(=O)(=O)N2CCCCC2)cc1C(=O)NCc1ccccn1"
recordedmeasurement = 52

[[record]]
compound = "COCCCNC(=S)N(Cc1ccccc1)Cc1ccc(F)cc1"
recordedmeasurement = 22.1


# map each compound to its solubility kinetic
1. O=C1CSC(c2ccc(F)c(F)c2)N1c1ccccc1F (configuration not stated)
2. Cc1ccc(NC(=O)CNS(=O)(=O)c2ccc(F)cc2)cc1C
3. Cc1ccccc1N1C(=O)Cc2ccccc2C1=O
4. Cl.OCCN(CC#CC(O)(c1ccccc1)C1CCCCC1)CCO (configuration not stated)

## Output
1. 38.3
2. 6.7
3. 35.4
4. 53
